Assay: Fraction unbound by equilibrium dialysis
Format: in vitro ADME
Details: pH 7.4; Table S5; fraction unbound
The threshold is 0.8. Values of fraction unbound at 4 h, 1 µM beneath it are tagged y; values meeting or exceeding it are tagged n.

> print(dat)
                            compound.smiles  assigned.class
1  O=C(COc1cccc(NC(=O)CCCO)c1)NCCc1nc2ccccc2[nH]1               n
2  CC(=O)Nc1ccc(OCC(=O)NCCc2nc3ccccc3[nH]2)cc1               n
3  O=C(COc1ccccc1)NCCc1nc2ccccc2n1CCOc1ccccc1               y
4  O=C(COc1ccc(NC(=O)CCCO)cc1)NCCc1nc2ccccc2[nH]1               n
5  NC(=O)Cn1c(CCNC(=O)COc2ccccc2)nc2ccccc21               n
6  O=C(COc1ccccc1Br)NCCc1nc2ccccc2n1CCOc1ccccc1Br               y

* * *

Target: cruzain (Trypanosoma cruzi, UniProt P25779)
Construct: made in house; host or cells: Escherichia coli (strain M15)
Sequence (P25779 123-337 limits assumed): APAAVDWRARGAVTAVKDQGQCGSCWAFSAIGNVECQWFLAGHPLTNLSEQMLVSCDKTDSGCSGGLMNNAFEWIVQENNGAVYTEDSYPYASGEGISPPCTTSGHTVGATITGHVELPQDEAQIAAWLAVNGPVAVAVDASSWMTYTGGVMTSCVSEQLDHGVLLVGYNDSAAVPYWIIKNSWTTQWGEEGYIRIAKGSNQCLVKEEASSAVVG
Assay: Cruzain enzyme inhibition assay (cleavage of fluorogenic substrate Z-FR-AMC)
Format: biochemical
Details: 1.5 nM cruzain, 5.0 µM Z-FR-AMC; mean ± SD of 2–3 assays; read-out: IC50 (µM) against cruzain
Criterion: IC50 strictly less than 9 µM. Met: rule met. Not met: rule not met.

> print(dat)
                             compound.smiles  assigned.class
 1  COc1ccc2cc(OCC(=O)NCCc3nc4ccccc4[nH]3)ccc2c1        rule met
 2  O=C(COc1ccccc1)NCCc1nc2ccccc2n1CCOc1ccccc1        rule met
 3    C=CCCn1c(CCNC(=O)COc2ccccc2)nc2ccccc21    rule not met
 4  O=C(COc1ccc2ccc(O)cc2c1)NCCc1nc2ccccc2[nH]1        rule met
 5  NC(=O)Cn1c(CCNC(=O)COc2ccccc2)nc2ccccc21    rule not met
 6  COC(=O)c1cccc2cc(OCC(=O)NCCc3nc4ccccc4[nH]3)ccc12        rule met
 7        O=C(COc1ccccc1)NCCc1nc2ccccc2[nH]1    rule not met
 8  O=C(COc1ccccc1)NCCc1nc2ccccc2n1Cc1ccccc1        rule met
 9  O=C(COc1ccc2cc(O)ccc2c1)NCCc1nc2ccccc2[nH]1        rule met
10  O=C(COc1ccc2c(C(=O)O)cccc2c1)NCCc1nc2ccccc2[nH]1    rule not met
11  O=C(COc1ccccc1)NCCc1nc2ccccc2n1-c1ccccc1        rule met
12     Nc1cccc(OCC(=O)NCCc2nc3ccccc3[nH]2)c1    rule not met
13  O=C(COc1cccc([N+](=O)[O-])c1)NCCc1nc2ccccc2[nH]1    rule not met
14  O=C(COc1ccc2cc(C(=O)O)ccc2c1)NCCc1nc2ccccc2[nH]1    rule not met

* * *

Assay: In vitro metabolic stability in human liver microsomes
Type: in vitro ADME
Conditions: Table S5
In this scheme, each record receives a class according to its CLint (L/h/kg) Human; the ranges are lower range: < 10 L/h/kg; middle range: ≥ 10 L/h/kg and < 40 L/h/kg; upper range: ≥ 40 L/h/kg

> print(dat)
                             compound.smiles  assigned.class
 1  O=C(COc1ccc2ccccc2c1CO)NCCc1nc2ccccc2[nH]1    middle range
 2  Cc1cc(C)c(C#N)c(SCC(=O)NCCc2nc3ccccc3[nH]2)n1     upper range
 3  Cc1ccc2[nH]c(CCNC(=O)COc3ccc4ccccc4c3Br)nc2c1     upper range
 4         CC(=O)NCCc1nc2ccccc2n1CCOc1ccccc1     lower range
 5        CC(=O)NCCc1nc2ccccc2n1CCOCc1ccccc1     lower range
 6  O=C(COc1cccc2ccccc12)NCCc1nc2ccccc2[nH]1    middle range
 7  O=C(COc1ccc2ccccc2c1Br)NCCc1nc2cc(Cl)ccc2[nH]1     upper range
 8       Nc1ccccc1OCC(=O)NCCc1nc2ccccc2[nH]1     lower range
 9       O=C(CCOc1ccccc1)NCCc1nc2ccccc2[nH]1     lower range
10       O=C(CCOc1ccccc1)NCCc1c[nH]c2ccccc12    middle range
11      O=C(COc1ccccc1Cl)NCCc1nc2ccccc2[nH]1    middle range

* * *

Known CLint_u (L/h/kg) Mouse of a selection of molecules
Assay: In vitro metabolic stability in mouse liver microsomes
Assay type: in vitro ADME
Details: Table S5, CLint/fu
PARAMETER: CLint_u (L/h/kg) Mouse

> print(dat)
                            compound.smiles  measured.result
1  COc1ccc(C(=O)Cn2c(CCNC(=O)COc3ccc4ccccc4c3Br)nc3ccccc32)cc1  2,609.38 L/h/kg
2  O=C(COc1cccc2ccccc12)NCCc1nc2ccccc2[nH]1  1,495.55 L/h/kg
3  COc1ccc2[nH]c(CCNC(=O)COc3ccc4ccccc4c3Br)nc2c1  2,793.30 L/h/kg
4       Cc1ccccc1OCC(=O)NCCc1c[nH]c2ccccc12  1,292.96 L/h/kg

* * *

Reported values of fu for individual entries
Test: Fraction unbound by equilibrium dialysis
Type: in vitro ADME
Details: Table S5; fraction unbound
PARAMETER: fu

> print(dat)
                            compound.smiles  parameter  measured.result
1         CC(=O)NCCc1nc2ccccc2n1CCOc1ccccc1         fu             0.91
2       O=C(COc1ccccc1F)NCCc1nc2ccccc2[nH]1         fu             0.94
3  Cc1cc(C)c(C#N)c(SCC(=O)NCCc2nc3ccccc3[nH]2)n1         fu             0.96
4       O=C(COc1ccccc1I)NCCc1nc2ccccc2[nH]1         fu             0.63

* * *

Assay: In vivo pharmacokinetics in male CD1 mice
Parameters: species or system mouse
Conditions: Table 6; plasma clearance corrected for the fraction unbound, IV
Description: The in vivo pharmacokinetic profiles of the compounds were determined using male CD1 mice weighing […] ([Davies and Morris, 1993]; [Liu and Jia, 2007]). The compounds were administered in a single dose orally (0.5 mg/kg) and intravenously (0.5 mg/kg). […] The remaining plasma concentration was monitored over time by LC-MS/MS by collecting blood samples (40 μl) at 10, 25, and 50 min and 1, 3, 6, 9, 12, and 24 h after administration of the compound. […]
# CLpu listing for each entry below
PARAMETER: CLpu (mL/min/kg)

> print(dat)
                                   molecule  measured.result
1  O=C(COc1ccccc1Br)NCCc1nc2ccccc2[nH]1 [Compound 18]             1728
2  O=C(COc1ccccc1[N+](=O)[O-])NCCc1nc2ccccc2[nH]1 [Compound 32]             2623
3  O=C(Cn1ccnc1[N+](=O)[O-])NCc1ccccc1 [BZ, benznidazole, reference compound]             16.7
4  O=C(COc1ccc2ccccc2c1)NCCc1nc2ccccc2[nH]1 [Compound 35]             5577

* * *

Experiment: Fraction unbound by equilibrium dialysis
Type: in vitro ADME
Details: pH 7.4; Table S5; fraction unbound
The entries below are paired with their reported fraction unbound at 4 h, 1 µM.
PARAMETER: fraction unbound at 4 h, 1 µM

> print(dat)
                                   molecule  measured.result
1  O=C(COc1ccccc1)NCCc1nc2ccccc2n1CCOc1ccccc1Br [Compound 19]             0.12
2  CC(=O)Nc1cccc(OCC(=O)NCCc2nc3ccccc3[nH]2)c1 [Compound 3]                1
3  O=C(COc1ccccc1)NCCc1nc2ccccc2n1Cc1ccccc1 [Compound 26]             0.61
4  C=CCCn1c(CCNC(=O)COc2ccccc2)nc2ccccc21 [Compound 27]             0.86
5  O=C(COc1ccc(N2C(=O)CCC2=O)cc1)NCCc1nc2ccccc2[nH]1 [Compound 4]             0.99

* * *

Experiment: In vitro metabolic stability in mouse liver microsomes
Format: in vitro ADME
Details: Table S5, CLint/fu
# key: entry, value: CLint_u (L/h/kg) Mouse
PARAMETER: CLint_u (L/h/kg) Mouse

> print(dat)
                            compound.smiles               parameter  measured.result
1       O=C(COc1ccccc1I)NCCc1nc2ccccc2[nH]1  CLint_u (L/h/kg) Mouse  1,082.41 L/h/kg
2  O=Cc1c(OCC(=O)NCCc2nc3ccccc3[nH]2)ccc2ccccc12  CLint_u (L/h/kg) Mouse  1,276.72 L/h/kg
3     O=C(COc1ccc2ccccc2c1)NCCc1nc2ccccc2o1  CLint_u (L/h/kg) Mouse  1,144.44 L/h/kg
